Data provenance is PubChem BioAssay.

target: Voltage-gated potassium channel subunit beta-2 (Rattus norvegicus) (UniProt P62483); test: KvBeta enzyme negative modulators, primary screen, biochemical, NADPH fluorescence (AID 622); conditions: recombinant KvBeta, 4-cyanobenzaldehyde reduction, at 10 µM, active compounds read high;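 note: slope of raw intensity against log time taken from 70 to 1610 s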
Sequence (P62483 whole entry, looked up): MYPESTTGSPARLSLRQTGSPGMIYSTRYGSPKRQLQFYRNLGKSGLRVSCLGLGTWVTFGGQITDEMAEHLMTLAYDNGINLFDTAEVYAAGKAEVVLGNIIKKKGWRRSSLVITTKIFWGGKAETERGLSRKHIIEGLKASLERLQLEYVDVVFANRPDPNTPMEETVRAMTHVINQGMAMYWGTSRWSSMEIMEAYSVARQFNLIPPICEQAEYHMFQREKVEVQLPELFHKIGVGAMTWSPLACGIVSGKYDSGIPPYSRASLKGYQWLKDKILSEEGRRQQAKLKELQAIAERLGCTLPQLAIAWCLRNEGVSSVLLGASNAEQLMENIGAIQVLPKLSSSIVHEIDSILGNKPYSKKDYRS
Decide using fluorescence slope: a value greater than or equal to -0.5 is 1, a smaller one is 0.

>  <compound>
Cc1csc(NC(=O)CCn2c(=O)oc3ccccc32)n1

>  <discrete.label>
1

$$$$
>  <compound>
COc1ccc2c(c1OC)C(=O)N1c3ccccc3C(=O)N(c3ccccc3F)C21 (stereo unspecified)

>  <discrete.label>
1

$$$$
>  <compound>
Cc1c(C(=O)OCC(C)(C)CN(C)C)oc2ccccc12

>  <discrete.label>
1

$$$$
>  <compound>
CCOC(=O)C(C)Sc1nnc(Cc2cc(=O)[nH]c(=O)[nH]2)n1-c1ccc(Cl)cc1 (stereo unspecified)

>  <discrete.label>
0

$$$$
>  <compound>
N#CC1=C(N)OC2=C(C(=O)CCC2)[C@]12C(=O)N(CC(N)=O)c1ccccc12

>  <discrete.label>
1

$$$$
>  <compound>
CC1(C)NC(=O)N(CN2C(=O)NC(C)(C)C2=O)C1=O

>  <discrete.label>
1

$$$$
>  <compound>
Cc1cc2ccccc2c(=O)n1CC(=O)Nc1ccc2c(c1)OCO2

>  <discrete.label>
1

$$$$
>  <compound>
CCN1CCc2c(C#N)c(NCc3ccccc3)nc(N(CC)CC)c2C1

>  <discrete.label>
1

$$$$
>  <compound>
O=C(COC(=O)c1cc(-c2ccco2)nc2ccccc12)NCc1ccc2c(c1)OCO2

>  <discrete.label>
1

$$$$
>  <compound>
Cc1cc(NC(=O)CCC(=O)N(c2cccnc2)C(C(=O)NC2CCCC2)c2ccccc2F)no1 (stereo unspecified)

>  <discrete.label>
0

$$$$
>  <compound>
COc1ccc(S(=O)(=O)N2CCCC(C(=O)NCc3ccccn3)C2)cc1 (stereo unspecified)

>  <discrete.label>
1

$$$$
>  <compound>
CCn1nc(NC(=O)c2ccco2)c2cc3ccccc3nc21

>  <discrete.label>
1

$$$$
>  <compound>
COc1ccc(S(=O)(=O)N2CCN(c3ccc(C)cc3C)CC2)cc1OC

>  <discrete.label>
0

$$$$
>  <compound>
c1ccc2c(c1)[nH]c1c(N3CCN(C4CCCCC4)CC3)ncnc12

>  <discrete.label>
1

$$$$
>  <compound>
CCOC(=O)c1ccccc1NC(=O)c1cc2sccc2n1C

>  <discrete.label>
1

$$$$
>  <compound>
CN(C)c1cccc2c(S(=O)(=O)N3CCOCC3)cccc12

>  <discrete.label>
1

$$$$
>  <compound>
COCCNC(=O)CN1CCN(C(c2ccccc2)c2ccccc2)CC1

>  <discrete.label>
0

$$$$
>  <compound>
CC(=O)/C(C#N)=C1\NC(=O)C(Cc2ccccc2Cl)S1 (stereo unspecified)

>  <discrete.label>
1

$$$$
>  <compound>
COc1ccccc1CNC(=O)Nc1cccs1

>  <discrete.label>
1

$$$$

====

target: Alpha-2C adrenergic receptor (Homo sapiens) (UniProt P18825); test: modulators of alpha2C/GIRK thallium flux, primary screen, cell-based, HEK293 alpha2C/GIRK1/2 (AID 624); settings: thallium flux BTC fluorescence, at 10 µM, actives lie on both sides;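 note: slope of fluorescence ratio to pre-addition baseline per second over 15 to 24 s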
Sequence (P18825 whole entry, looked up): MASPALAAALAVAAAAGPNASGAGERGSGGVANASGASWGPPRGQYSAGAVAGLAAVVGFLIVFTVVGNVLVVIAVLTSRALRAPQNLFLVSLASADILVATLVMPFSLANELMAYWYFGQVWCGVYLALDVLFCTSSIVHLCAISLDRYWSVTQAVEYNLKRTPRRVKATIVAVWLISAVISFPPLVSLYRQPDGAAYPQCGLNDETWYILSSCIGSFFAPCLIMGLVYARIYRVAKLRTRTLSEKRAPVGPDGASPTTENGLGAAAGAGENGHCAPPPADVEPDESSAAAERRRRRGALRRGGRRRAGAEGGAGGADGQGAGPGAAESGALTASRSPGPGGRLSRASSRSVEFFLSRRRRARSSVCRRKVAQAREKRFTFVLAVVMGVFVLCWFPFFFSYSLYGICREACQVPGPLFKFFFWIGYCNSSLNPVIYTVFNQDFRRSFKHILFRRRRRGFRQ
Here the recorded slope is given for each entry.
experimental.readout: slope

>  <compound>
CCOC(=O)c1[nH]c2ccccc2c1NC(=O)C(CC)CC

>  <obs.value>
0.00668

$$$$
>  <compound>
O=C(NC1CC1)C1CCC(=O)N1C1CCCC1 (stereo unspecified)

>  <obs.value>
0.00569

$$$$
>  <compound>
O=C(NCC(=O)N(c1ccc2c(c1)OCCO2)C(C(=O)NC1CCCC1)c1ccco1)c1ccco1 (stereo unspecified)

>  <obs.value>
0.00578

$$$$
>  <compound>
CCCCNC(=O)OCCNC(=O)NC

>  <obs.value>
0.00519

$$$$
>  <compound>
Cn1c(=O)c2c(nc(CN3CCCCC3)n2CCCc2ccccc2)n(C)c1=O

>  <obs.value>
0.00664

$$$$
>  <compound>
CCOC(=O)/N=C(/NC(=O)Nc1ccc(C(=O)OCC)cc1)OC

>  <obs.value>
0.00625

$$$$
